target: Genome polyprotein (dengue virus type 2)
Sequence (P29990 1346-1475 limits assumed): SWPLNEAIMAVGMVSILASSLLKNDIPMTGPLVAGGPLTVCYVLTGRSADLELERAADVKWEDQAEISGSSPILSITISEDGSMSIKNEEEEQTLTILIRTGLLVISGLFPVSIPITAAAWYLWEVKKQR
Sequence (P29990 1476-2093 limits assumed): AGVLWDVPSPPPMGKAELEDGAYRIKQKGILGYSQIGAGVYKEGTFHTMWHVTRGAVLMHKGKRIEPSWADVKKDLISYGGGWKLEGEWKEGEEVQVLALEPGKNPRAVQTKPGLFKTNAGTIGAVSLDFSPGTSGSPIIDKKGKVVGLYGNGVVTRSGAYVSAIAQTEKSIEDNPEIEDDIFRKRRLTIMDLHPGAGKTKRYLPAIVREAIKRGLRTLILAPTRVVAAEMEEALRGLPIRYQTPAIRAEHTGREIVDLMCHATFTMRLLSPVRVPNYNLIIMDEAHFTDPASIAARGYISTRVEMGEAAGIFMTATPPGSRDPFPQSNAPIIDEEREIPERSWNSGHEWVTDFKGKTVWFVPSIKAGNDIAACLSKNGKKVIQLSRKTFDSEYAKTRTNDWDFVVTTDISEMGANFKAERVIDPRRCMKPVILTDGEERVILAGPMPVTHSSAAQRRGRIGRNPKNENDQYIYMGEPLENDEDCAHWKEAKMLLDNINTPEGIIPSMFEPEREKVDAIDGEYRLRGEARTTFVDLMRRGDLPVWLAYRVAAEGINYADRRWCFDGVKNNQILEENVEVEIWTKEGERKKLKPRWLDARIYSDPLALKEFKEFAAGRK
Non-standard residues stand in square brackets, D forms with d. Residues, ends and D or L forms follow the SMILES beside them. Trp(5-NO2) = N[C@@H](Cc1c[nH]c2ccc([N+](=O)[O-])cc12)C(=O)O; 2Abz = Nc1ccccc1C(=O)O
quantity_kind: Ki

compound	result
CC(=O)N[C@@H](CCCNC(=N)N)C(=O)N[C@@H](CCCNC(=N)N)C(=O)N[C@@H](CCCNC(=N)N)C(=O)N[C@@H](CCCNC(=N)N)C(=O)N[C@@H](Cc1cnc[nH]1)C(=O)N[C@@H](Cc1c[nH]c2ccccc12)C(=O)N[C@@H](CS)C(=O)N[C@@H](Cc1c[nH]c2ccccc12)C(N)=O (Ac-RRRRHWCW-NH2)	300 nM
CC(C)C[C@H](NC(=O)[C@H](Cc1cnc[nH]1)NC(=O)[C@H](CCCNC(=N)N)NC(=O)[C@H](CCCNC(=N)N)NC(=O)[C@H](CCCNC(=N)N)NC(=O)[C@@H](N)CCCNC(=N)N)C(=O)N[C@@H](CS)C(=O)N[C@@H](Cc1c[nH]c2ccccc12)C(N)=O (H-RRRRHLCW-NH2)	400 nM
N=C(N)NCCC[C@H](NC(=O)[C@H](CCCNC(=N)N)NC(=O)[C@H](CCCNC(=N)N)NC(=O)[C@@H](N)CCCNC(=N)N)C(=O)N[C@@H](Cc1cnc[nH]1)C(=O)N[C@@H](Cc1c[nH]c2ccccc12)C(=O)N[C@@H](CS)C(=O)N[C@@H](Cc1c[nH]c2ccccc12)C(N)=O (H-RRRRHWCW-NH2)	300 nM
CC(C)C[C@H](NC(=O)[C@H](Cc1cnc[nH]1)NC(=O)[C@H](CCCNC(=N)N)NC(=O)[C@H](CCCNC(=N)N)NC(=O)[C@H](CCCNC(=N)N)NC(=O)[C@H](CCCNC(=N)N)NC(=O)c1ccccc1N)C(=O)N[C@@H](CS)C(=O)N[C@@H](Cc1c[nH]c2ccc([N+](=O)[O-])cc12)C(N)=O (H-[2Abz]RRRRHLC[Trp(5-NO2)]-NH2)	1100 nM

====

target: Genome polyprotein (West Nile virus)
Sequence (P06935 1371-1501 limits assumed): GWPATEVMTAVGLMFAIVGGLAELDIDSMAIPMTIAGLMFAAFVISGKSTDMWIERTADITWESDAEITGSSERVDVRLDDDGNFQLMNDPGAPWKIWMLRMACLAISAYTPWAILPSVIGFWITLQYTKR
Sequence (P06935 1502-2120 limits assumed): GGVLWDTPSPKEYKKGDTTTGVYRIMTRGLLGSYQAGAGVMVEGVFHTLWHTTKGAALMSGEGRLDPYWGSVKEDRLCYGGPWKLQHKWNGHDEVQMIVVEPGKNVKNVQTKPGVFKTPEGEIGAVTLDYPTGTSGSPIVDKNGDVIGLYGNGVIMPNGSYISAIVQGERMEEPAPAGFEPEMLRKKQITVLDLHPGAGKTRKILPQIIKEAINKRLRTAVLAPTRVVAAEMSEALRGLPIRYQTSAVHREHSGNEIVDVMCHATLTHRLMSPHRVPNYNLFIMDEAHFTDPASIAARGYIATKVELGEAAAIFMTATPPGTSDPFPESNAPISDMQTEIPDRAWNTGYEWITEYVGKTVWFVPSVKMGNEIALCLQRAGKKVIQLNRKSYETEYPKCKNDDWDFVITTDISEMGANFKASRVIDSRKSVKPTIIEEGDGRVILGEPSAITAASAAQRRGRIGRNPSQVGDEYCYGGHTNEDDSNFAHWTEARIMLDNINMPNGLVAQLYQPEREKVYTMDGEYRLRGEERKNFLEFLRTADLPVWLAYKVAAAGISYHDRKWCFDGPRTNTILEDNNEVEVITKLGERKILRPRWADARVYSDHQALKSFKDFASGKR
test_description: Inhibition of West Nile virus NS2B-NS3 protease preincubated for 1 hr followed by Pyr-RTKR-AMC addition and measured after 30 mins by fluorescence method

compound	Ki
CC(=O)N[C@@H](CCCCN)C(=O)N[C@@H](CCCCN)C(=O)NCCCCNC(=N)N	4.9 µM

====

Items are presented alongside their recorded IC50.
target: Nonstructural protein 3 (Zika virus, UniProt A0A024AXB9)
Sequence (A0A024AXB9 whole entry): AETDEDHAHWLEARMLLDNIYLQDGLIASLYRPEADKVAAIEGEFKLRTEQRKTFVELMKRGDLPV
test_description: Inhibition of Zika virus unlinked NS2B-NS3 protease preincubated for 5 mins followed by benzoyl-nKRR-AMC addition and measured every 60 secs for 12 mins by fluorescence method
Residues, ends and D or L forms follow the SMILES beside them. *: point of attachment. PhAc = O=C(Cc1ccccc1)*
quantity_kind: IC50

compound	result
N=C(N)NCCC[C@H](NC(=O)Cc1ccc(CNC(=N)N)cc1)C(=O)N[C@@H](CCCNC(=N)N)C(=O)N[C@@H](CCCNC(=N)N)C(=O)NCc1ccc(C(=N)N)cc1	1100 nM
N=C(N)NCCC[C@H](NC(=O)[C@H](CCCCN)NC(=O)[C@H](CCCCN)NC(=O)Cc1ccccc1)C(=O)NCC(=O)NCC(N)=O (PhAc-KKRGG-NH2)	1200 nM
N=C(N)NCCC[C@H](NC(=O)[C@H](CCCCN)NC(=O)[C@H](CCCCN)NC(=O)Cc1ccc(CNC(=N)N)cc1)C(N)=O	1600 nM

Provenance of the data: ChEMBL document CHEMBL4354802
